SYSTEM_UNDER_TEST: T1, KLK14 (UniProt Q9P0G3)
T1 sequence (Q9P0G3 41-267, species assumed, looked up): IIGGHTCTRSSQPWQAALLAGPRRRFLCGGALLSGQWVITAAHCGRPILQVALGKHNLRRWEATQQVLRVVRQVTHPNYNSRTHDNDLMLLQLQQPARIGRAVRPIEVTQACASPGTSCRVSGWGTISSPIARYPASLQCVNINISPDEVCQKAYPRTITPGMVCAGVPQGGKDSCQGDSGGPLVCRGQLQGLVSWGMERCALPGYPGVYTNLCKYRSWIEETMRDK
EXPERIMENTAL_PROTOCOL: enzyme inhibition assay (fluorogenic substrate); selectivity: inhibition of KLK7, KLK8 or KLK14 activity by the peptide, n = 3; substrates and conditions in the Supporting Information
pIC50: −log10 of the molar value. Bridge positions count the residues as written; N and C are the ends.
PARAMETER_MEASURED: pIC50

BINDER	REPORTED_VALUE
cyclo(GSCTRSSPPECWPN) (disulfide 3-11 (inferred), SFTI scaffold grafted with residues of a further LEKTI domain, glutamic acid at position 10; source: synthetic peptide (hydrazide peptide, cyclised via native chemical ligation, oxidised, RP-HPLC purified)) [SFTI analogue 9]	< 6.00
cyclo(GRCTRSIPPHCWPD) (disulfide 3-11 (inferred)) [SFTI-1 triple mutant 2, cyclo-[…]]	7.62
cyclo(GFCTRSNPPECWPN) (disulfide 3-11 (inferred), SFTI scaffold grafted with residues of a LEKTI domain, glutamic acid at position 10; source: synthetic peptide (hydrazide peptide, cyclised via native chemical ligation, oxidised, RP-HPLC purified)) [LEKTI-grafted SFTI analogue, lead 7]	< 6.00
cyclo(GYCTRSSPPECWPN) (disulfide 3-11 (inferred), SFTI scaffold grafted with residues of a further LEKTI domain, glutamic acid at position 10; source: synthetic peptide (hydrazide peptide, cyclised via native chemical ligation, oxidised, RP-HPLC purified)) [SFTI analogue 10]	< 6.00
